- target-or-system: human 5-HT6 receptor (Homo sapiens, UniProt P50406)
- Construct: expressed in transfected cells
- Sequence (P50406 whole entry): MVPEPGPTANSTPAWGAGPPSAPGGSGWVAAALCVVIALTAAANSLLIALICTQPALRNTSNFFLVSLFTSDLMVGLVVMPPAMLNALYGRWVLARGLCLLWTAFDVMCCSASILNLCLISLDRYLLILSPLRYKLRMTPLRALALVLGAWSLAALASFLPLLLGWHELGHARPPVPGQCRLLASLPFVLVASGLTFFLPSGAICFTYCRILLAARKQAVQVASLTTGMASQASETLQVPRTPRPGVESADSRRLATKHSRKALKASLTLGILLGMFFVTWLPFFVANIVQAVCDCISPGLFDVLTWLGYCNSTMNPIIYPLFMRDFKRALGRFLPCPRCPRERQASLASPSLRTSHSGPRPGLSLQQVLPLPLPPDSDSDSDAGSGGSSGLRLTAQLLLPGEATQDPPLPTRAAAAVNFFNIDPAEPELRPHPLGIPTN
- assay-details: GPCR radioligand binding assay, [3H]-LSD displacement, HEK293 membranes
- conditions: 5-HT6; replicate exp_1
measured-quantity: %inh 5-HT6 exp_1 (%)
Give bare numbers, in %.

| molecule | assay-value |
| --- | --- |
| c1ccc2sc(N3CCNCC3)nc2c1 | 49 |
| Brc1ccc(-c2ccon2)cc1 | 40 |
| N#CCCN1CCc2ccccc21 | 26 |
| O=C1NC2(CCCC2)Nc2ccccc21 | 46 |
| CCc1nccn1CC(=O)O | -9 |
| Cc1ccc(C)n1Cc1ccccc1Cl | 30 |

# next compound below
// query I would be grateful if you could share the reported %inh 5-HT6 exp_1 for CN(C)c1cc(CN)ccn1 .
// result 16

* * *

- target-or-system: human 5-HT6 receptor (Homo sapiens)
- Construct: expressed in transfected cells
- assay-details: GPCR radioligand binding assay, [3H]-LSD displacement, HEK293 membranes
- conditions: 5-HT6; average of exp_1 and exp_2
Outcome label depends on %inh 5-HT6 average relative to 20%: at/above gives T, below gives F.

Field: example entries. Status: answers known.
| compound | class-assignment |
| --- | --- |
| N[C@H]1c2ccccc2C[C@H]1CO [B5] | T |
| CC(=O)c1ccc2c(c1)CCCN2 [C7] | F |
| Oc1ccc(C2CCNCC2)cc1 [E11] | T |
| Brc1ccc(-c2ccon2)cc1 [A9] | T |
| O=C(c1ccncc1)N1CCNCC1 [E2] | T |

// query Answer whether %inh 5-HT6 average of Oc1ccc(-n2cncn2)cc1 [H5] is greater than or equal to 20%.
// result T

// query One more compound: N#Cc1ccc2ncsc2c1 [C12]
// result T

// query What do you have for O=C(O)c1cccc(Nc2ncccn2)c1 [F5] ?
// result T

// query What do we get for O=C1NC2(CCCC2)Nc2ccccc21 [C9] ?
// result T

// query # repeat for CCn1cnc2ccccc21 [D4]
// result T

// query Thanks! And c1ccc2oc(C3CCCNC3)nc2c1 (stereo not drawn) [D10] ?
// result T

// query Item: COc1ccc(C2=CCNCC2)cc1 [G1]
// result T

// query // repeat for Oc1nnc(-c2ccccc2)o1 [F7] and report
// result F

// query Also COc1ccccc1N1CCNCC1 [A10] , if possible.
// result T

* * *

- target-or-system: human thrombin (Homo sapiens, UniProt P00734)
- Construct: human thrombin; purchased Sigma-Aldrich
- assay-details: Protease inhibitory assay, chromogenic substrate S-2238
- Assay type: biochemical
- conditions: Thrombin Ki determination; substrate 20 µM; cmpd conc 200 µM
measured-quantity: vinit, avrg.
Answers are plain numbers.

Field: example entries. Status: answers known.
| molecule | measured-quantity | assay-value |
| --- | --- | --- |
| Nc1nnc(-c2cccs2)[nH]1 | vinit, avrg. | 23.831 |
| CC1CCc2sc(C(=O)O)cc2C1 (stereo not shown) | vinit, avrg. | 18.876 |
| O=C(O)c1cnc(-c2ccccc2)s1 | vinit, avrg. | 24.620 |
| NC(=O)N1CCC(C(=O)O)CC1 | vinit, avrg. | 24.461 |
| c1cnc2cccnc2c1 | vinit, avrg. | 23.193 |

List vinit, avrg. for every entry below, keeping the order given.
1. O=C(O)C1CCN(c2ncccn2)CC1
2. CC(=O)c1sc(-c2ccc(O)cc2)nc1C [SX-E1]

// result
19.600
24.296

* * *

- target-or-system: human thrombin (Homo sapiens)
- Construct: human thrombin; purchased Sigma-Aldrich
- assay-details: Protease inhibitory assay, chromogenic substrate S-2238
- Assay type: biochemical
- conditions: Thrombin Ki determination; substrate 40 µM; cmpd conc 200 µM
measured-quantity: vinit, avrg.
Give bare numbers.

Some solved entries appear below for comparison.
| molecule | measured-quantity | assay-value |
| --- | --- | --- |
| O=C(O)c1cnc(-c2ccccc2)s1 | vinit, avrg. | 32.167 |
| c1cnc2cccnc2c1 | vinit, avrg. | 31.452 |
| CC1CCc2sc(C(=O)O)cc2C1 (stereo not shown) | vinit, avrg. | 28.950 |
| Nc1nnc(-c2cccs2)[nH]1 | vinit, avrg. | 31.345 |
| CC(=O)c1sc(-c2ccc(O)cc2)nc1C [SX-E1] | vinit, avrg. | 31.885 |
| O=C(O)C1CCN(c2ncccn2)CC1 | vinit, avrg. | 29.629 |

Switching to the query record.
// query Form field: reported vinit, avrg. of NC(=O)N1CCC(C(=O)O)CC1
// result 32.560

* * *

- target-or-system: human 5-HT1A receptor (Homo sapiens)
- Construct: expressed in transfected cells
- Sequence (P08908 1-422): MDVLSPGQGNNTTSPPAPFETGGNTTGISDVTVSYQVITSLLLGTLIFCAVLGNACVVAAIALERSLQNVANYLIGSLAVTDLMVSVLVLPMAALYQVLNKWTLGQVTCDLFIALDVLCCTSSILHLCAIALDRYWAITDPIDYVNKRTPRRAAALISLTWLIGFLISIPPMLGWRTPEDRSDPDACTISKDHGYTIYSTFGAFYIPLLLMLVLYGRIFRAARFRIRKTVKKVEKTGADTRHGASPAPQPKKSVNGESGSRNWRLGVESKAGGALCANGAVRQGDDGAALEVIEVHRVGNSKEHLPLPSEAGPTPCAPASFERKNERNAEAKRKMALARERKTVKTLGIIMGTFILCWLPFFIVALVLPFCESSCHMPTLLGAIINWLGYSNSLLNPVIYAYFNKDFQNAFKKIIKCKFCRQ
- assay-details: GPCR radioligand binding assay, [3H]-8-OH-DPAT displacement, HEK293 membranes
- conditions: 5-HT1A; average of exp_1 and exp_2
measured-quantity: %inh 5-HT1A average (%)
One number for each entry, in %.

Before answering, review these 5 worked examples.
| molecule | target-or-system | result-units | assay-value |
| --- | --- | --- | --- |
| c1cnc2c(c1)NCCC2 | human 5-HT1A receptor (Homo sapiens) | % | 12 |
| O=c1[nH]ncc2c1oc1ccccc12 | human 5-HT1A receptor (Homo sapiens) | % | -6.46 |
| CS(=O)(=O)c1ccc(N2CCNCC2)cc1 | human 5-HT1A receptor (Homo sapiens) | % | 4.22 |
| CN1CC(=O)NC1=O | human 5-HT1A receptor (Homo sapiens) | % | -4.34 |
| Cc1nccn1Cc1cccc(C#N)c1 | human 5-HT1A receptor (Homo sapiens) | % | 10 |

Below are 7 compounds. Give each one its %inh 5-HT1A average.
1. O=C1CCCc2occc21
2. O=c1[nH]c2c(s1)CCC2
3. N[C@H]1c2ccccc2C[C@H]1CO
4. Cc1ccc(-c2ccc(O)cc2)cc1
5. Cc1cc(N)no1
6. Cn1c(CO)nc2ccccc21
7. Cn1nc(C(F)(F)F)cc1O

// result
1: -4.51; 2: -4; 3: -0.612; 4: -20; 5: -21; 6: -5; 7: 21

Parameter requested: %inh 5-HT1A average. Apply to each item below.
1. Cc1ccc(C)n1Cc1ccccc1Cl
2. COc1cccc(NC2=NCCCCC2)c1
3. N#Cc1ccc(C(=O)N2CCOCC2)cc1
4. c1ccc(-c2ccncc2)cc1
5. O=C(O)c1ccc(CN2CCOCC2)cc1
6. Oc1ccc(C2CCNCC2)cc1
7. CS(=O)(=O)c1ccc(OC(F)(F)F)cc1

// result
1: 6.37; 2: 11; 3: -13; 4: -6; 5: 5; 6: 5.37; 7: -30

* * *

- target-or-system: human 5-HT1A receptor (Homo sapiens)
- Construct: expressed in transfected cells
- Sequence (P08908 1-422): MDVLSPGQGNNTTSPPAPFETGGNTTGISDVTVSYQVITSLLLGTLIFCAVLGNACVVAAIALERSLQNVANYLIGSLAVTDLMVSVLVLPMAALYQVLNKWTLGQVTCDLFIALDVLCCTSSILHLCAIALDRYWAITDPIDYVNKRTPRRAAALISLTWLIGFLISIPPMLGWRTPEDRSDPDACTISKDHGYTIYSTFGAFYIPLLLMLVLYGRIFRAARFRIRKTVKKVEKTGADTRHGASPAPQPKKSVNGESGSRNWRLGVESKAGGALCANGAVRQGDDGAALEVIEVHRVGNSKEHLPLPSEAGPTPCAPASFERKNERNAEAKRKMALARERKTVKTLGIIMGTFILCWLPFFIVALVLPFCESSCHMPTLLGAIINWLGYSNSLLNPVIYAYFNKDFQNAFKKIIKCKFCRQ
- assay-details: GPCR radioligand binding assay, [3H]-8-OH-DPAT displacement, HEK293 membranes
- conditions: 5-HT1A; replicate exp_2
Consider the following compounds; for each one, report its %inh 5-HT1A exp_2.
Please answer in the form of a number followed by its unit of measurement.

| compound | %inh 5-HT1A exp_2 |
| --- | --- |
| CC(=O)c1ccc2c(c1)CCCN2 | 6.6% |

Please state %inh 5-HT1A exp_2 for every compound in the list that follows.
1. CC1(C)OC(=O)c2cc(Br)c(O)cc2O1
2. CS(=O)(=O)c1ccc(N2CCNCC2)cc1
3. N#CC1CCS(=O)(=O)C1 (stereo not shown)
4. Cn1c(CO)nc2ccccc21
5. CC(=O)c1ccc2c(c1)CNCC2

// result
1. 7%
2. 0%
3. -14%
4. -22%
5. -3.26%

// query GET /values?readout=%inh 5-HT1A exp_2&system=human 5-HT1A receptor (Homo sapiens)&item= O=C1CCN(c2ccccn2)CC1
// result -18%
